Below is a list of entries, each paired with its recorded aqueous solubility value.
assay: aqueous solubility at 22° C.; format: physicochemical
Where a name gives a salt, the structure may show the parent alone.
Your answer should be a plain number; it is taken to be in mg/mL.

CC(=O)Nc1ccc(O)cc1 [II]    541

Qu. // query aqueous solubility value for entry CC(=O)Nc1ccc(O)cc1 [IV]
Ans. 455

Qu. // query aqueous solubility value for entry CC(=O)Nc1ccc(O)cc1 [III]
Ans. 13

Qu. // query aqueous solubility value for entry CC(=O)Nc1ccc(O)cc1 [I]
Ans. 493

Qu. // query aqueous solubility value for entry CC(=O)Nc1ccc(O)cc1 [Calcium Salt, acetaminophen calcium]
Ans. 13
